# measurement.target: BiP* FL (full-length T229G BiP, BiP(1-641)) (Cricetulus griseus, UniProt G3I8R9, T229G/V461F)
# Construct: full-length two-domain BiP, residues 1-641 as printed, non-cleavable N-terminal 6xHis tag, pET28a, E. coli BL21(DE3); ATPase-deficient T229G; non-AMPylated
# Sequence (G3I8R9 1-641 T229G/V461F): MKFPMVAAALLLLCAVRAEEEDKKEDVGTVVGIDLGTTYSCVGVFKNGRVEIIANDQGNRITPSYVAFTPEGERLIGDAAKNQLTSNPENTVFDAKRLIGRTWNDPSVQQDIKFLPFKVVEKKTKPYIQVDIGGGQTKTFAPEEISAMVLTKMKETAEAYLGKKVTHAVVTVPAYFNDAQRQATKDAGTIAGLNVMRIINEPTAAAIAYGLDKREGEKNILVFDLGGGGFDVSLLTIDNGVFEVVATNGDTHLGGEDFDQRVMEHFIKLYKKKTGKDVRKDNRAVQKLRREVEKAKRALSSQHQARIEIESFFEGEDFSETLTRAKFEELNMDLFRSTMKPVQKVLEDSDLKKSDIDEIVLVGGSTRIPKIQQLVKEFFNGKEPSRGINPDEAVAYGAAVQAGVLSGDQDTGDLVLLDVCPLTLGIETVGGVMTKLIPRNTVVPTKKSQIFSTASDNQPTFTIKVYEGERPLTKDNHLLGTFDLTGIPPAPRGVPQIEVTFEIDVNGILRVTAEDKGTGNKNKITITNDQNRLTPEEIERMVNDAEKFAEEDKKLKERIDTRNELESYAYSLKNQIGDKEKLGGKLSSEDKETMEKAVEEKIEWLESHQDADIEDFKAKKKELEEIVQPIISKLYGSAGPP
# measurement.protocol: ITC
# Excerpt: ITC on BiP* FL (full-length T229G BiP, BiP(1-641)) | ATP and ADP binding obtained from ITC experiments for FL BiP*
pKd: −log10 of the molar value.
assay.readout: pKd

1. Nc1ncnc2c1ncn2[C@@H]1O[C@H](COP(=O)(O)OP(=O)(O)OP(=O)(O)O)[C@@H](O)[C@H]1O
2. Nc1ncnc2c1ncn2[C@@H]1O[C@H](COP(=O)(O)OP(=O)(O)O)[C@@H](O)[C@H]1O
Qu. Which entry shows the lesser value of pKd here, 1 or 2 ? Answer = label.
Ans. 2
